Data provenance: ChEMBL document CHEMBL4689842

test system: Fibroblast; assay: Multiplex assay against human fibroblast; assay type: toxicity, cell-based; details: 48 h, 10 µM, compound concentration 10 uM, replicate 1
Measured property: Population Normal (%)

Guide cases for Population Normal (%), answers given:
> print(dat)
                                    molecule  result
 1  Cc1[nH]c(/C=C2\C(=O)Nc3ccc(S(=O)(=O)N(C)c4cccc(Cl)c4)cc32)c(C)c1C(=O)N1CCN(C)CC1     88%
 2  Cc1cc(C)cc(-c2cnc3cc(Cl)c(-c4cccc(O)c4)cc3c2OCCCN)c1     60%
 3  NC(=O)Nc1cc(-c2cccc(F)c2)sc1C(=O)N[C@H]1CCCNC1     68%
 4  CN1CCN(CCOc2cc(OC3CCOCC3)c3c(Nc4c(Cl)ccc5c4OCO5)ncnc3c2)CC1     64%
 5  C=CC(=O)Nc1cccc(C(=O)Nc2ccc(Nc3cc(-c4[nH]c(SC)nc4C)ccn3)cc2)c1     87%
 6  Cn1cc(-c2[nH]c3cc(NC(=O)[C@H](N)C4CCCCC4)cc4c3c2C=NNC4=O)cn1     60%
 7  c1cn2cc(-c3ccc4cn[nH]c4c3)nc(Nc3ccc(N4CCOCC4)cc3)c2n1     52%
 8  CNCc1ccccc1-c1csc([C@H](C)Nc2nc(C)nc3cc(OC)c(OC)cc23)c1     64%
 9  COc1cccc([C@@H](C)NCCCc2ccccc2Cl)c1.Cl [TECALCET HYDROCHLORIDE]     78%
10  CNc1nc(NCc2ccc(NS(C)(=O)=O)cc2Cl)cc(-c2ccccn2)n1     63%

Query: # query: Population Normal (%) of entry CCOCCn1cc(C(=O)Nc2ccc(-n3nc(-c4cccnc4)cc3C(F)(F)F)cn2)ccc1=O
Reply: 77%

Query: COc1ncc(-c2ccc3nccc(-c4ccnnc4)c3c2)cc1NS(=O)(=O)c1ccc(F)cc1F , same question.
Reply: 82%
